Biological target: Impα(70–529)(W184R/W231R) (murine, UniProt P52293 70-529, W184R | W231R)
Assay: fluorescence polarisation; direct titration: serial dilutions of Impα into 100 nM FITC-labeled peptide; FP buffer (20 mM Tris pH 7.7, 125 mM NaCl, 1 mM EDTA, 2 mM TCEP, 5% sucrose, 10 mM NaN3); room temperature (legend: 25 °C); apparent dissociation constants, single-site fit
Conditions: both partners purified
No end group written: not given here. *: point of attachment. FITC = O=C1OC2(c3ccc(O)cc3Oc3cc(O)ccc32)c2ccc(NC(=S)*)cc21
Kd values by entry
Answer format: numeric, µM implied, no suffix.

binder | endpoint_result
SVPKRPKLPGK(FITC) (added G-Lys that carries the FITC label; also called major motif ligand; major motif peptide; source: synthetic peptide, bought: Genscript) [M2: XRCC1 (268-276)-G-Lys-FITC] | 690

// query Request the reported Kd associated with {FITC}-SPKGKRKLDLNQEEKKTPSKPPAQLSPSVPKRPKLP (human XRCC1 residues 241-276, the bipartite NLS; also called Full XRCC1 NLS ligand; FITC-labeled bipartite XRCC1 NLS; source: synthetic peptide, bought: Genscript) [FL-NLS: FITC-XRCC1 (241–276)]
// result 7.4
